Provenance of the data: patent US9273058B2

- TARGET OF ASSAY: CK1ε (Homo sapiens)
- Sequence (P49674 whole entry): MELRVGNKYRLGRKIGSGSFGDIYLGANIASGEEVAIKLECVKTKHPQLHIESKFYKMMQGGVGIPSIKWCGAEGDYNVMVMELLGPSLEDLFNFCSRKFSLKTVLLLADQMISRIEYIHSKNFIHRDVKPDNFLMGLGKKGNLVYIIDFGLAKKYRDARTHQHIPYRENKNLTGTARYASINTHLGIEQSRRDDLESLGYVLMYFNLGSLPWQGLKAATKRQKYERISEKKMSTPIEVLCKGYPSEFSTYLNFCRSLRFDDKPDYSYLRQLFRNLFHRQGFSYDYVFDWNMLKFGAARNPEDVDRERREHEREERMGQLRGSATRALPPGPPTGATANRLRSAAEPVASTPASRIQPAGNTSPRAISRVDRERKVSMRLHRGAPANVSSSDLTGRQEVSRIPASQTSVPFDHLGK
- EXPERIMENT NOTES: CK1ε kinase assay (Caliper LabChip electrophoretic separation of fluoresceinated peptide substrate and product)
- Format: biochemical
- CONDITIONS USED: 200 pM CK1ε, 50 μM ATP, 1.5 μM peptide, 22 hours at room temperature; read-out: CK1ε IC50 range
pIC50: −log10 of the molar value.
pIC50: recorded values

CS[C@H]1C[C@@H](NC(=O)N2CCn3nc(-c4cccc(Cl)c4)c(C(N)=O)c3C2)C1 :: 8.00 to 11.00
CC1(NC(=O)N2CCn3nc(-c4cccc(Cl)c4)c(C(N)=O)c3C2)CC1 :: 8.00 to 11.00

For the compound `CC12CC3CC(C)(C1)CC(NC(=O)N1CCn4nc(-c5ccc(F)c(Cl)c5)c(C(N)=O)c4C1)(C3)C2` , give its reported pIC50.
8.00 to 11.00

Provide one value: measured pIC50 of CC1(NC(=O)N2CCn3nc(-c4cccc(Cl)c4)c(C(N)=O)c3C2)CC2(C1)CC2(F)F (single isomer, unassigned) [Compound 331]
8.00 to 11.00

Given `CC(C)(C)NC(=O)N1CCn2nc(-c3cccc(-c4ccccc4)c3)c(C(N)=O)c2C1` , respond with its pIC50.
5.70 to 7.00

Fill in reported pIC50 for this entry: `NC(=O)c1c(-c2cccc(F)c2)nn2c1CN(C(=O)Nc1ccccc1C(F)(F)F)CC2`
5.70 to 7.00
